- target of assay: Dual specificity protein kinase CLK2 (Homo sapiens)
- measurement parameters: at 0.1 µM
- Description: GSK_PKIS: CLK2 mean inhibition at 0.1 uM [Nanosyn]
observation type: inhibition
Could you give the number and then its unit, please?

1. CCn1cc(-c2ccnc3[nH]ccc23)c(-c2cccc(NC(=O)Nc3ccc(OCc4ccccc4)cc3)c2)n1
-0.56%
2. FC(F)(F)c1cccc(-c2nn3ncccc3c2-c2ccnc(Nc3ccc4c(c3)OCCO4)n2)c1
1.11%
3. Cc1ccc2c(-c3ccnc(Nc4ccccc4)n3)c(-c3ccc(F)cc3)nn2n1
2.31%
4. COc1ccc(-c2cc(-c3c[nH]nc3-c3ccccn3)ccn2)cc1
0.77%
5. O=C(Nc1n[nH]c2cc(-c3ccc(F)cc3)ccc12)C1CC1
0.75%
6. CCn1c(-c2nonc2N)nc2cnc(Oc3cccc(NC(=O)c4ccc(N(C)C)cc4)c3)cc21
-0.04%
7. CCn1c(-c2nonc2N)nc2c(C#CC(C)(C)O)nc(OC[C@H](N)c3ccccc3)cc21
1.87%
8. CS(=O)(=O)CCNCc1ccc(-c2ccc3ncnc(Nc4ccc(OCc5ccccc5)c(C(F)(F)F)c4)c3c2)o1
0.79%

Give inhibition for COC(=O)Nc1nc2ccc(S(=O)(=O)c3ccc(NC(=O)Nc4cc(C(F)(F)F)ccc4F)cc3)cc2[nH]1
0.38%

Where these numbers come from: ChEMBL document CHEMBL1961873
